The origin of these recorded values is PubChem BioAssay AID1963970.

System: 931267-113-T-J1-PDC multicell spheroid viability
Protocol summary: Anticancer human tumor 931267-113-T-J1-PDC patient-derived colon adenocarcinoma cell line growth inhibition [PI3K]
Conditions used: second compound 10 µM; first compound 0.01 µM; stronger effect = lower value
Endpoint label: viability, T/C

# annotated cases, reported viability, T/C shown
{"Molecule": "CC(=O)c1c(C)c2cnc(Nc3ccc(N4CCNCC4)cn3)nc2n(C2CCCC2)c1=O + CC(Nc1ncnc2nc[nH]c12)c1cc2cccc(Cl)c2c(=O)n1-c1ccccc1", "Endpoint label": "viability, T/C", "Measured result": "93.3%"}
{"Molecule": "CCN1CCN(Cc2ccc(Nc3ncc(F)c(-c4cc(F)c5nc(C)n(C(C)C)c5c4)n3)nc2)CC1 + Cc1nc(NC(=O)N2CCCC2C(N)=O)sc1-c1ccnc(C(C)(C)C(F)(F)F)c1", "Endpoint label": "viability, T/C", "Measured result": "57%"}
{"Molecule": "Cn1ncnc1[C@H]1c2n[nH]c(=O)c3cc(F)cc(c23)N[C@@H]1c1ccc(F)cc1 + CC(Nc1ncnc2nc[nH]c12)c1cc2cccc(Cl)c2c(=O)n1-c1ccccc1", "Endpoint label": "viability, T/C", "Measured result": "98.8%"}

Task: // lookup viability, T/C for Cn1ncnc1[C@H]1c2n[nH]c(=O)c3cc(F)cc(c23)N[C@@H]1c1ccc(F)cc1 + Cc1nc(NC(=O)N2CCCC2C(N)=O)sc1-c1ccnc(C(C)(C)C(F)(F)F)c1
Result: 51.8%

----------
Tested on: 931267-113-T-J1-PDC multicell spheroid viability
Protocol summary: Anticancer human tumor 931267-113-T-J1-PDC cell line growth inhibition [PI3K];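 also: viability read 7 days after compound addition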
Conditions used: second compound 1 µM; first compound 1 µM; stronger effect = lower value
Endpoint label: viability, T/C (%)
Your answer should be a plain number; it is taken to be in %.

{"Compound": "C[C@@H](NC(=O)c1ncnc(N)c1Cl)c1ncc(C(=O)Nc2cc(C(F)(F)F)c(Cl)cn2)s1 + COc1c(OCCCN2CCOCC2)ccc2c3n(c(=NC(=O)c4cnc(N)nc4)nc12)CCN3", "viability, T/C (%)": 35.2}
{"Compound": "C[C@@H](NC(=O)c1ncnc(N)c1Cl)c1ncc(C(=O)Nc2cc(C(F)(F)F)c(Cl)cn2)s1 + CC(Nc1ccc2c(c1)OCCn1cc(N3C(=O)OCC3C(F)F)nc1-2)C(N)=O", "viability, T/C (%)": 77.2}
{"Compound": "CCCS(=O)(=O)Nc1ccc(F)c(C(=O)c2c[nH]c3ncc(-c4ccc(Cl)cc4)cc23)c1F + CC(Nc1ccc2c(c1)OCCn1cc(N3C(=O)OCC3C(F)F)nc1-2)C(N)=O", "viability, T/C (%)": 61.3}
{"Compound": "CC(C)NCC(C(=O)N1CCN(c2ncnc3c2C(C)CC3O)CC1)c1ccc(Cl)cc1 (configuration not stated) + COc1c(OCCCN2CCOCC2)ccc2c3n(c(=NC(=O)c4cnc(N)nc4)nc12)CCN3", "viability, T/C (%)": 31}
{"Compound": "CNC(=O)c1ccc(N2C(=S)N(c3ccc(C#N)c(C(F)(F)F)c3)C(=O)C2(C)C)cc1F + COc1c(OCCCN2CCOCC2)ccc2c3n(c(=NC(=O)c4cnc(N)nc4)nc12)CCN3", "viability, T/C (%)": 34.2}

Task: // lookup viability, T/C for CC(Cn1ccc(-c2ccc(C#N)c(Cl)c2)n1)NC(=O)c1cc(C(C)O)[nH]n1 (configuration not stated) + COc1c(OCCCN2CCOCC2)ccc2c3n(c(=NC(=O)c4cnc(N)nc4)nc12)CCN3
Result: 32.5

Task: // lookup viability, T/C for Cn1ncc(Cl)c1-c1cc(C(=O)NC(CN)Cc2cccc(F)c2)sc1Cl (configuration not stated) + CC(Nc1ncnc2nc[nH]c12)c1cc2cccc(Cl)c2c(=O)n1-c1ccccc1
Result: 91.2

Task: // lookup viability, T/C for CC(C)NCC(C(=O)N1CCN(c2ncnc3c2C(C)CC3O)CC1)c1ccc(Cl)cc1 (configuration not stated) + CC(Nc1ccc2c(c1)OCCn1cc(N3C(=O)OCC3C(F)F)nc1-2)C(N)=O
Result: 76

Task: // lookup viability, T/C for C=CC(=O)N1CCN(c2nc(=O)n(-c3c(C)ccnc3C(C)C)c3nc(-c4c(O)cccc4F)c(F)cc23)C(C)C1 (configuration not stated) + CC(Nc1ccc2c(c1)OCCn1cc(N3C(=O)OCC3C(F)F)nc1-2)C(N)=O
Result: 80.7

Task: // lookup viability, T/C for C[C@@H](NC(=O)c1ncnc(N)c1Cl)c1ncc(C(=O)Nc2cc(C(F)(F)F)c(Cl)cn2)s1 + CC(Nc1ncnc2nc[nH]c12)c1cc2cccc(Cl)c2c(=O)n1-c1ccccc1
Result: 110

Task: // lookup viability, T/C for Cn1nccc1Nc1nccc(-c2ccn(C(CO)c3ccc(Cl)c(F)c3)c(=O)c2)n1 (configuration not stated) + Cc1nc(NC(=O)N2CCCC2C(N)=O)sc1-c1ccnc(C(C)(C)C(F)(F)F)c1
Result: 54

Task: // lookup viability, T/C for C#Cc1c(F)ccc2cc(O)cc(-c3ncc4c(N5CC6CCC(C5)N6)nc(OCC56CCCN5CC(F)C6)nc4c3F)c12 (configuration not stated) + CC(Nc1ccc2c(c1)OCCn1cc(N3C(=O)OCC3C(F)F)nc1-2)C(N)=O
Result: 23.6
